ASSAY_INFO: Partition coefficient, n-octanol / 50 mM phosphate buffer pH 7.4
Assay type: physicochemical
CONDITIONS_USED: n-octanol/50 mM phosphate buffer, pH 7.4; 1-octanol/phosphate buffer (7.4) at 25 °C; n = 3; mean ± SD
Please use 1 (yes) for logP under 2 and 0 (no) for everything else, ties included.

A record lists Cc1nc(CO)c(C)nc1CO [Liguzinediol, 2,5-Dihydroxymethyl-3,6-dimethylpyrazine] . Is its logP below 2?
1 (yes)

Quick check: does Cc1nc(COC(=O)C(C)(C)C)c(C)nc1CO have logP under 2?
1 (yes)

Consider CCCCCCCCCC(=O)OCc1nc(C)c(CO)nc1C . Does its logP lie strictly below 2?
0 (no)

State whether 2 exceeds logP recorded for CCCCCCCCCCCCCCCC(=O)OCc1nc(C)c(CO)nc1C .
0 (no)

hey, is logP for CCCCCCCCCC(=O)OCc1nc(C)c(COC(=O)CCCCCCCCC)nc1C lower than 2 or not?
0 (no)

Report whether reported logP is lower than 2 (strictly) for Cc1nc(COC(=O)C(C)(C)C)c(C)nc1COC(=O)C(C)(C)C
0 (no)

I wonder whether CCCCCCCCCCCC(=O)OCc1nc(C)c(COC(=O)CCCCCCCCCCC)nc1C has logP below 2. Can you tell?
0 (no)

Hello, I'm reviewing records and need to know if logP of CCCCCCCCCCCC(=O)OCc1nc(C)c(CO)nc1C is below 2. Could you check?
0 (no)
